- experimental-protocol: chemical genetic growth profiling, strain panel (AID 1159580);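 further: tested at 20 µM; growth read once vehicle control cultures reached saturation at 30 °C; 1 = growth at the plate median or of vehicle wells; lower values mean less growth of the strain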
- experimental-conditions: S. cerevisiae deletion strains, growth OD, locus YOR265W, strain rbl2, active compounds read low
Screen size: about 5,500 compounds; about 2,000 (36%) were called active. Roughly 18% stayed inconclusive and do not appear here. Some of the results follow.
value-type: normalized growth
Just the number, please, no unit attached.

# annotated cases, reported normalized growth shown
[[record]]
mol = "OC(CCN1CCCCC1)(c1ccccc1)c1ccccc1"
value_type = "normalized growth"
data_value = 0.989

[[record]]
mol = "CCCCCCCCCCCCC[N+](C)(C)Cc1ccccc1"
value_type = "normalized growth"
data_value = 0.0552

[[record]]
mol = "CC[C@@H](CO)NCCN[C@@H](CC)CO"
value_type = "normalized growth"
data_value = 1.01

[[record]]
mol = "c1ccc(CC2=NCCN2)cc1"
value_type = "normalized growth"
data_value = 0.99

[[record]]
mol = "CCCCOc1ccc(OCCCN2CCOCC2)cc1"
value_type = "normalized growth"
data_value = 0.967


Now look at this entry.
**Q:** Reported normalized growth, compound CC(C)(C)CC(C)(C)c1ccc(OCCOCC[N+](C)(C)Cc2ccccc2)cc1 : ____
**A:** 0.0618
